B1: glmS ribozyme (parent)
chain: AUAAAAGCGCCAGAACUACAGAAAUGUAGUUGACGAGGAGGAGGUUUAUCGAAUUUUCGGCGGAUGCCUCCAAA

- Variants of: B1
- ASSAY: self-cleavage kobs at 640 uM GlcN6P; higher = faster cleavage; RNA array
- CONDITION_SET: with glucosamine-6-phosphate
Variants at the floor of the assay were thinned out.
PARAMETER: self-cleavage kobs at 640 uM GlcN6P

**Query** Could you tell me which self-cleavage kobs at 640 uM GlcN6P is on file for A52C U56A ?
**Result** < 1e-05 s⁻¹

**Query** Could you tell me which self-cleavage kobs at 640 uM GlcN6P is on file for G7A U31G G41U C68U ?
**Result** < 1e-05 s⁻¹

**Query** Could you tell me which self-cleavage kobs at 640 uM GlcN6P is on file for A6G A33U C58G C67U C71A ?
**Result** 0.000593 s⁻¹

**Query** Could you tell me which self-cleavage kobs at 640 uM GlcN6P is on file for G13U G37C U56C C67A C71U ?
**Result** < 1e-05 s⁻¹

**Query** Could you tell me which self-cleavage kobs at 640 uM GlcN6P is on file for A39G G40A ?
**Result** 0.00167 s⁻¹

**Query** Could you tell me which self-cleavage kobs at 640 uM GlcN6P is on file for G35A A39G C61U ?
**Result** < 1e-05 s⁻¹

**Query** Could you tell me which self-cleavage kobs at 640 uM GlcN6P is on file for A15U C70G ?
**Result** 5.16e-05 s⁻¹

**Query** Could you tell me which self-cleavage kobs at 640 uM GlcN6P is on file for A6U G37A U54A ?
**Result** < 1e-05 s⁻¹

**Query** Could you tell me which self-cleavage kobs at 640 uM GlcN6P is on file for U47G U54A ?
**Result** 0.00157 s⁻¹

**Query** Could you tell me which self-cleavage kobs at 640 uM GlcN6P is on file for G29C C70U ?
**Result** 0.000243 s⁻¹

**Query** Could you tell me which self-cleavage kobs at 640 uM GlcN6P is on file for U31C G59U ?
**Result** < 1e-05 s⁻¹

**Query** Could you tell me which self-cleavage kobs at 640 uM GlcN6P is on file for G9A G35A C58U C71U ?
**Result** < 1e-05 s⁻¹

**Query** Could you tell me which self-cleavage kobs at 640 uM GlcN6P is on file for G35A G40U C68U ?
**Result** < 1e-05 s⁻¹

**Query** Could you tell me which self-cleavage kobs at 640 uM GlcN6P is on file for G41A G44A G60A ?
**Result** < 1e-05 s⁻¹

**Query** Could you tell me which self-cleavage kobs at 640 uM GlcN6P is on file for G13C U31C ?
**Result** 0.000211 s⁻¹

**Query** Could you tell me which self-cleavage kobs at 640 uM GlcN6P is on file for U46G G66U C67U ?
**Result** 0.000128 s⁻¹

**Query** Could you tell me which self-cleavage kobs at 640 uM GlcN6P is on file for G9A G40C G44A G59U ?
**Result** < 1e-05 s⁻¹

**Query** Could you tell me which self-cleavage kobs at 640 uM GlcN6P is on file for C8G C10U A48U ?
**Result** < 1e-05 s⁻¹

**Query** Could you tell me which self-cleavage kobs at 640 uM GlcN6P is on file for G66U U69G ?
**Result** 5.52e-05 s⁻¹

**Query** Could you tell me which self-cleavage kobs at 640 uM GlcN6P is on file for U31A A36C G37U U49C ?
**Result** < 1e-05 s⁻¹

**Query** Could you tell me which self-cleavage kobs at 640 uM GlcN6P is on file for C11U G29U A52C ?
**Result** < 1e-05 s⁻¹

**Query** Could you tell me which self-cleavage kobs at 640 uM GlcN6P is on file for C16U U56G ?
**Result** 0.00302 s⁻¹

**Query** Could you tell me which self-cleavage kobs at 640 uM GlcN6P is on file for G7A G43C ?
**Result** < 1e-05 s⁻¹

**Query** Could you tell me which self-cleavage kobs at 640 uM GlcN6P is on file for A12C U46G ?
**Result** 0.000761 s⁻¹

**Query** Could you tell me which self-cleavage kobs at 640 uM GlcN6P is on file for A15U G41A ?
**Result** 6.09e-05 s⁻¹

**Query** Could you tell me which self-cleavage kobs at 640 uM GlcN6P is on file for A14C G43U ?
**Result** < 1e-05 s⁻¹

**Query** Could you tell me which self-cleavage kobs at 640 uM GlcN6P is on file for C11A A12C G44C U49A ?
**Result** < 1e-05 s⁻¹

**Query** Could you tell me which self-cleavage kobs at 640 uM GlcN6P is on file for A12U A33U ?
**Result** 7.77e-05 s⁻¹

**Query** Could you tell me which self-cleavage kobs at 640 uM GlcN6P is on file for C8U A15C G35C C68U ?
**Result** < 1e-05 s⁻¹

**Query** Could you tell me which self-cleavage kobs at 640 uM GlcN6P is on file for G41U G59U ?
**Result** < 1e-05 s⁻¹

**Query** Could you tell me which self-cleavage kobs at 640 uM GlcN6P is on file for G13U C16A A39G G40U C68G ?
**Result** < 1e-05 s⁻¹

**Query** Could you tell me which self-cleavage kobs at 640 uM GlcN6P is on file for G41U A64G ?
**Result** 0.00015 s⁻¹

**Query** Could you tell me which self-cleavage kobs at 640 uM GlcN6P is on file for A36C A39G G60U ?
**Result** < 1e-05 s⁻¹

**Query** Could you tell me which self-cleavage kobs at 640 uM GlcN6P is on file for U46G U65A C71U ?
**Result** 0.000735 s⁻¹

**Query** Could you tell me which self-cleavage kobs at 640 uM GlcN6P is on file for A6G A14G ?
**Result** 0.000162 s⁻¹

**Query** Could you tell me which self-cleavage kobs at 640 uM GlcN6P is on file for G13C A14C U55G G59U ?
**Result** < 1e-05 s⁻¹

**Query** Could you tell me which self-cleavage kobs at 640 uM GlcN6P is on file for U31A G62C C71U ?
**Result** < 1e-05 s⁻¹

**Query** Could you tell me which self-cleavage kobs at 640 uM GlcN6P is on file for C8A C34G ?
**Result** < 1e-05 s⁻¹

**Query** Could you tell me which self-cleavage kobs at 640 uM GlcN6P is on file for A33G G38U U65A C70G ?
**Result** 7.69e-05 s⁻¹

**Query** Could you tell me which self-cleavage kobs at 640 uM GlcN6P is on file for A53U C58U C67U ?
**Result** 9.41e-05 s⁻¹

**Query** Could you tell me which self-cleavage kobs at 640 uM GlcN6P is on file for U30C G59U ?
**Result** < 1e-05 s⁻¹

**Query** Could you tell me which self-cleavage kobs at 640 uM GlcN6P is on file for A6C G60A ?
**Result** < 1e-05 s⁻¹

**Query** Could you tell me which self-cleavage kobs at 640 uM GlcN6P is on file for A12U U55G ?
**Result** 0.0105 s⁻¹

**Query** Could you tell me which self-cleavage kobs at 640 uM GlcN6P is on file for G35A G40C ?
**Result** < 1e-05 s⁻¹

**Query** Could you tell me which self-cleavage kobs at 640 uM GlcN6P is on file for A33C G44U ?
**Result** < 1e-05 s⁻¹

**Query** Could you tell me which self-cleavage kobs at 640 uM GlcN6P is on file for G21A ?
**Result** 0.00836 s⁻¹
